tested_system: hROMK (hKir1.1) (Homo sapiens (Human), UniProt P48048)
Sequence (P48048 whole entry): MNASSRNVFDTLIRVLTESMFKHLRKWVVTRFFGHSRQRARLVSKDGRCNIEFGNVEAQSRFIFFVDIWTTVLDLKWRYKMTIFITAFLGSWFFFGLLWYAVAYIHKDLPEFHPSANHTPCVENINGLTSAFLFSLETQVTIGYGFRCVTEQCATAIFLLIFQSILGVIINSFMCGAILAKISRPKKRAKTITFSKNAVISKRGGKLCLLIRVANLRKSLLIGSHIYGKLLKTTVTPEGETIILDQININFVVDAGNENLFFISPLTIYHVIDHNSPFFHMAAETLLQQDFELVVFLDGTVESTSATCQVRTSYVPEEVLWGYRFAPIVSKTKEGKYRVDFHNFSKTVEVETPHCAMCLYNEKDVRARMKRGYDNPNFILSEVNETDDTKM
protocol: Thallium Flux Assay (ROMK channel functional thallium flux, FLIPR-Tetra)
Type: cell-based
test_conditions: HEK293 cells stably expressing hROMK (hKir1.1); read-out: Thallium Flux IC50
outcome_measure: IC50 (nM)
Give a bare numeral; the unit nM is implied.

Return IC50 measured with hROMK (hKir1.1) (Homo sapiens (Human), UniProt P48048) given this compound: COc1cc(C(O)CN2CCN3C[C@@H](c4ccc5c(c4C)COC5=O)OC[C@@H]3C2)cc(F)c1C#N (stereo partly shown)
220

Recall the recorded IC50 for Cc1c([C@@H]2CN3CCN(CC(O)c4ccc5c(c4)C[C@H](C)OC5=O)C[C@H]3CO2)ccc2c1COC2=O (single isomer, unassigned) [Example 44] with hROMK (hKir1.1) (Homo sapiens (Human), UniProt P48048) and state it.
270

Provide value of IC50 for this record tested with hROMK (hKir1.1) (Homo sapiens (Human), UniProt P48048): Cc1c([C@@H]2CN3CCN(CC(O)c4cccc(-n5cnnn5)c4)C[C@@H]3CO2)ccc(F)c1C#N (single isomer, unassigned) [Example 22]
310

Hi! What's the reported IC50 for Cc1cc2c(cc1C(O)CN1CCN3C[C@@H](c4ccc5c(c4C)COC5=O)OC[C@@H]3C1)COC2=O (single isomer, unassigned) [Example 43] on hROMK (hKir1.1) (Homo sapiens (Human), UniProt P48048)?
210

Value wanted: IC50 (hROMK (hKir1.1) (Homo sapiens (Human), UniProt P48048)) of entry Cc1c([C@@H](O)CN2CCN3C[C@H](c4ccc5c(c4C)COC5=O)SC[C@@H]3C2)ccc2c1COC2=O
330

Provide value of IC50 for this record tested with hROMK (hKir1.1) (Homo sapiens (Human), UniProt P48048): Cc1c([C@@H]2CN3CCN(CCc4ccc5c(c4)COC5=O)C[C@H]3CN2)ccc(F)c1C#N
140

Lab note: need IC50 for COc1c([C@@H]2CN3CCN(C[C@@H](O)c4ccc5c(c4C)COC5=O)C[C@H]3CO2)ccc(C#N)c1F on hROMK (hKir1.1) (Homo sapiens (Human), UniProt P48048), anyone have it?
650

Report IC50 for Cc1c([C@H]2CN3CCN(CCc4ccc5c(c4C)COC5=O)C[C@H]3CO2)ccc(F)c1C#N tested on hROMK (hKir1.1) (Homo sapiens (Human), UniProt P48048).
270

# query: IC50 | item Cc1c([C@@H]2CN3CCN(CC(O)c4cc(F)c(C#N)c(F)c4)C[C@H]3CO2)ccc2c1COC2=O (stereo partly shown) [Example 38] | system: hROMK (hKir1.1) (Homo sapiens (Human), UniProt P48048)
440

Tell me reported IC50 for Cc1c(CCN2CCN3C[C@@H](c4ccc5c(c4)COC5=O)OC[C@@H]3C2)ccc2c1COC2=O , tested with hROMK (hKir1.1) (Homo sapiens (Human), UniProt P48048).
60

Given the entry Cc1c([C@@H]2CN3CCN(C[C@H](O)c4ccc5c(c4C)COC5=O)C[C@H]3CO2)ccc2c1COC2=O , what IC50 was observed with hROMK (hKir1.1) (Homo sapiens (Human), UniProt P48048)?
120

GET /values?readout=IC50&system=hROMK (hKir1.1) (Homo sapiens (Human), UniProt P48048)&item= Cc1cc(-n2cnnn2)ncc1C(O)CN1CCN2C[C@@H](c3ccc(F)c(C#N)c3C)OC[C@@H]2C1 (single isomer, unassigned) [Example 19]
440

Value wanted: IC50 (hROMK (hKir1.1) (Homo sapiens (Human), UniProt P48048)) of entry Cc1c([C@H]2CN3CCN(CCc4ccc5c(c4)COC5=O)C[C@H]3CN2)ccc(F)c1C#N
110
